MIC reference
test system: Enterococcus faecalis ATCC 29212; test: Broth microdilution MIC, E. faecalis ATCC 29212; type: cell-based; details: ATCC29212, broth microdilution, 37° C., 20 hours, read-out: MIC E. faecalis ATCC 29212

Cn1ncc2nc(NCc3ccc4[nH]ccc4c3)[nH]c(=O)c21 [Compound 14] | > 64 µg/mL

Task item: Consider the compound shown here: Cl.O=C([C@@H]1C[C@H](O)CN1)N1CCC(n2ncc3nc(NCc4ccc(Cl)c(Cl)c4)[nH]c(=O)c32)CC1 [Compound 278] What is its recorded MIC?
Reply: > 64 µg/mL

###

test system: Enterococcus faecalis ATCC 29212; experiment: Broth microdilution MIC, E. faecalis ATCC 29212; type: cell-based; details: ATCC29212, broth microdilution, 37° C., 20 hours, read-out: MIC E. faecalis ATCC 29212
MIC reference
# unit: µg/mL | format: bare number

Illustrative cases are given below, each with its answer.
O=c1[nH]c(NCc2ccc(Cl)c(Cl)c2)nc2cnn(Cc3ccc(O)c(O)c3)c12 | 16
Cc1cc(CNc2nc3cnn(C)c3c(=O)[nH]2)ccc1Cl | 8
O=c1[nH]c(NCc2ccc(Cl)c(Cl)c2)nc2cnn(CC(O)CO)c12 (centres unmarked) | 16
O=c1[nH]c(NCc2ccc(Cl)c(Cl)c2)nc2c(Cl)n[nH]c12 | 8
O=c1[nH]c(NCc2ccc(Cl)c(Cl)c2)nc2c(Cl)nn(Cc3cocn3)c12 | 2

Now consider the entry below.
Task item: Consider the molecule shown here: "Cc1noc(C)c1C(=O)NCCn1ncc2nc(NCc3ccc(Cl)c(Cl)c3)[nH]c(=O)c21" What is its recorded MIC?
Reply: 16

###

MIC reference
tested on: Enterococcus faecium ATCC 700221 (VRE); test: Broth microdilution MIC, E. faecium ATCC 700221 (VRE); format: cell-based; conditions: Enterococcus faecium; broth microdilution, 37° C., 20 hours; read-out: MIC E. faecium ATCC 700221 (VRE)
Number plus unit, in that order.

Cl.O=c1[nH]c(NCc2ccc(Cl)c(Cl)c2)nc2cnn(CCNC3=NCCN3)c12 | 64 µg/mL

Task item: Enterococcus faecium ATCC 700221 (VRE) / MIC / "O=c1[nH]c(NCc2ccc(Cl)c(Cl)c2)nc2c(F)nn(CCOCCO)c12" : value?
Reply: 1 µg/mL

Task item: Please answer likewise for "COCCCCCn1cc2nc(NCc3ccc(Cl)c(Cl)c3)[nH]c(=O)c2n1"
Reply: 64 µg/mL

Task item: Please answer likewise for "O=c1[nH]c(NCc2ccc(Cl)c(Cl)c2)nc2cnn(CC3COC3)c12"
Reply: 1 µg/mL

###

test system: Enterococcus faecium ATCC 700221 (VRE); assay: Broth microdilution MIC, E. faecium ATCC 700221 (VRE); format: cell-based; details: Enterococcus faecium; broth microdilution, 37° C., 20 hours; read-out: MIC E. faecium ATCC 700221 (VRE)
reported property: MIC (µg/mL)
# unit: µg/mL | format: bare number

Illustrative cases are given below, each with its answer.
Cc1ccc(CNc2nc3c(F)nn(CCOCCO)c3c(=O)[nH]2)cc1F [Compound 313] | 8
Cl.O=C(c1cccnc1)N1CCCC(Cn2ncc3nc(NCc4ccc(Cl)c(Cl)c4)[nH]c(=O)c32)C1 (stereo not drawn) [Compound 280] | 8

Task item: Consider the molecule shown here: O=C(NCCn1ncc2nc(NCc3ccc(Cl)c(Cl)c3)[nH]c(=O)c21)c1cc(O)nnc1Cl [Compound 84] What is its recorded MIC?
Reply: 32

Task item: Please answer likewise for C[C@H](O)Cn1ncc2nc(NCc3ccc(Cl)c(Cl)c3)[nH]c(=O)c21 [Compound 240]
Reply: 4

Task item: Please answer likewise for Cc1ccc(CNc2nc3cnn(C)c3c(=O)[nH]2)cc1Cl [Compound 31]
Reply: 4

The origin of these recorded values is patent US10723741B1.
